# measured_on: Human BCMA (human) (UniProt Q02223)
# test: SPR, IgG on chip, huBCMA analyte
test_readout: kon (M⁻¹ s⁻¹)
# output: bare number, implied unit M⁻¹ s⁻¹

Solved cases (2 shown):
COMBO_Rd4_6nM_C12 (antibody, V domains shown, IgG) VH: EVQLLESGGGLVQPGGSLRLSCAASGFTFSSYPMSWVRQAPGKGLEWVSAALGSGGSTYYADSVKGRFTISRDNSKNTLYLQMNSLRAEDTAVYYCARYWPMDSWGQGTLVTVS VL: EIVLTQSPGTLSLSPGERATLSCRASQSVSASYLAWYQQKPGQAPRLLMYDASIRATGIPDRFSGSGSGTDFTLTISRLEPEDFAVYYCQQYMSWPLTFGQGTKVEIK; 1.38e+07
C01_Rd4_6nM_C26 (antibody, V domains shown, IgG) VH: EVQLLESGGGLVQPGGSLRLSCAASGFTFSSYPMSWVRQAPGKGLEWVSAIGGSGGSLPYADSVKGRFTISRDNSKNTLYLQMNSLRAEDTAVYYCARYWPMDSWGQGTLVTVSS VL: EIVLTQSPGTLSLSPGERATLSCRASQSVSALYLAWYQQKPGQAPRLLIYDASSRAPGIPDRFSGSGSGTDFTLTISRLEPEDFAVYYCQQYSAWPLTFGQGTKVEIK; 1.5e+07

The reported value for COMBO_Rd4_0.6nM_C14 (antibody, V domains shown, IgG) VH: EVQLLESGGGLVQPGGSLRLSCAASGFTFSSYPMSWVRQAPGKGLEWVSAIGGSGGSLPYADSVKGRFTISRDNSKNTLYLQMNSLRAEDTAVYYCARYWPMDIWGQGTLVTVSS VL: EIVLTQSPGTLSLSPGERATLSCRASQSVSALYLAWYQQKPGQAPRLLMYDASIRATGIPDRFSGSGSGTDFTLTISRLEPEDFAVYYCQQYYGWPLTFGQGTKVEIK in terms of kon is 8.66e+06

The reported value for A02_Rd4_6nM_C03 (antibody, V domains shown, IgG) VH: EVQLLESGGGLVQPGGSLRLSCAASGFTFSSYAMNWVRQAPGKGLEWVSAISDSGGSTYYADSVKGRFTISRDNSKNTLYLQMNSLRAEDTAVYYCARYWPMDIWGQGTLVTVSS VL: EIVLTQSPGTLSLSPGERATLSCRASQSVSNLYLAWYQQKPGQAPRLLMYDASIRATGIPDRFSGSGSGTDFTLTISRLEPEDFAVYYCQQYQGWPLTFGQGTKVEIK in terms of kon is 1.69e+06

The reported value for A02_Rd4_0.6nM_C01 (antibody, V domains shown, IgG; also called P5AC1) VH: EVQLLESGGGLVQPGGSLRLSCAASGFTFSSYAMNWVRQAPGKGLEWVSAILSSGGSTYYADSVKGRFTISRDNSKNTLYLQMNSLRAEDTAVYYCARYWPMDIWGQGTLVTVSS VL: EIVLTQSPGTLSLSPGERATLSCRGGQSVSSSYLAWYQQKPGQAPRLLMYDASIRATGIPDRFSGSGSGTDFTLTISRLEPEDFAVYYCQQYQSWPLTFGQGTKVEIK in terms of kon is 4.74e+06
